Target: UniProtKB O75469
Sequence (O75469 whole entry): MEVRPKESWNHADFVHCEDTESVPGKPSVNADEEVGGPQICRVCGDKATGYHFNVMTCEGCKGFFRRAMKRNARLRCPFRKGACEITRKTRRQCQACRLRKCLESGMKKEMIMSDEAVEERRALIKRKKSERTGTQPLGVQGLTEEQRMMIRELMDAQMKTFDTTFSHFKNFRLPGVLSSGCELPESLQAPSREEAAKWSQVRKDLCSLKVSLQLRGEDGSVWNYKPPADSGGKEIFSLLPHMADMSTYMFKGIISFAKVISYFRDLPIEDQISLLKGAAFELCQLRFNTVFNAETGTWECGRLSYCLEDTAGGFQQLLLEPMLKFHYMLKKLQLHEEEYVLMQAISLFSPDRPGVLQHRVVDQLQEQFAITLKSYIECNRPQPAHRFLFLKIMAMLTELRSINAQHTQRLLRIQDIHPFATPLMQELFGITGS
PROPERTY: IC50

Form field: reported IC50 of CC(C)O[C@H]1CC[C@H](C(=O)N2Cc3cccnc3Nc3ccc(N4C[C@H]5CC[C@@H]4CO5)cc32)OC1
18 µM

====

Test: Half life in dog at 2 mg/kg, iv measured up to 24 hrs by LC-MS/MS analysis
Format: ADME, organism-based, Canis lupus familiaris
Details: in vivo
PROPERTY: half-life

Form field: reported half-life of CC(C)O[C@H]1CC[C@H](C(=O)N2Cc3cccnc3Nc3cc(F)c(C4COCCO4)cc32)OC1 (stereo partly specified)
6 h

====

Experiment: Solubility of the compound at pH 2
Type: physicochemical
Conditions: buffer
PROPERTY: solubility (µM)
I only need the number, in µM, no unit after it.

Form field: reported solubility of CC(C)O[C@H]1CC[C@H](C(=O)N2Cc3cccnc3Nc3cc(F)c(C4COCCO4)cc32)OC1 (stereo partly specified)
143
